Biological target: Glycogen phosphorylase, muscle form (Oryctolagus cuniculus, UniProt P00489)
Sequence (P00489 whole entry): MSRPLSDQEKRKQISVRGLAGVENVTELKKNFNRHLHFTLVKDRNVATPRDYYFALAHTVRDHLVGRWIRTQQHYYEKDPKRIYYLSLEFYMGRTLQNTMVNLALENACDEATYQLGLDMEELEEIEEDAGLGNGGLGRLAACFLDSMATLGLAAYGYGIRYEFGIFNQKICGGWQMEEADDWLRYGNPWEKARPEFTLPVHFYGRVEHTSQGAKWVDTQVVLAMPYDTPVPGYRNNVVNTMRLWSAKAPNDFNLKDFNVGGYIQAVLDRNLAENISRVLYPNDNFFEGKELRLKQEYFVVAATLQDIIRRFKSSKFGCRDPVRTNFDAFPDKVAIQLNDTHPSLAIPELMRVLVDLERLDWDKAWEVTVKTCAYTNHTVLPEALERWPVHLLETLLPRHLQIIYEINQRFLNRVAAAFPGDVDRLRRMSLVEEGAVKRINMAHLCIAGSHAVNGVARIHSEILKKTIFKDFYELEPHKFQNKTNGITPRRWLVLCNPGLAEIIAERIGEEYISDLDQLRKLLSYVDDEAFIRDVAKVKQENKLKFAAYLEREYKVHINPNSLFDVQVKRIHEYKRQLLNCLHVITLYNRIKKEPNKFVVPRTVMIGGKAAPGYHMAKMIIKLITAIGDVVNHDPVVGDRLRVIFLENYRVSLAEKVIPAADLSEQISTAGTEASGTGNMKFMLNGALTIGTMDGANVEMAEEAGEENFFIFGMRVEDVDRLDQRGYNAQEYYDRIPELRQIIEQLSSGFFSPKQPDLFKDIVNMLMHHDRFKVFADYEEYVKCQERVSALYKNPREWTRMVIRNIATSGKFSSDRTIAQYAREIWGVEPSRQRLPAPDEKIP
Assay: Inhibition of rabbit muscle glycogen phosphorylase A assessed as release of phosphate from glucose-1-phosphate after 25 mins
Settings: read-out: IC50
measurement.label: IC50 (µM)

{"smiles.notation": "C=C(C)[C@@H]1CC[C@]2(C(=O)OCCN(CCCCCCNC(C)=O)C(C)=O)CC[C@]3(C)[C@H](CC[C@@H]4[C@@]5(C)CC[C@H](OC(C)=O)[C@@](C)(COC(C)=O)[C@@H]5CC[C@]43C)[C@@H]12", "unit.name": "µM", "recorded.value": 96.6}
{"smiles.notation": "C=C(C)[C@@H]1CC[C@]2(COC(=O)C(=O)NC(C)C)CC[C@]3(C)[C@H](CC[C@@H]4[C@@]5(C)CC[C@H](OC(=O)C(=O)NC(C)C)[C@@](C)(COC(=O)C(=O)NC(C)C)[C@@H]5CC[C@]43C)[C@@H]12", "unit.name": "µM", "recorded.value": 35.9}
{"smiles.notation": "C=C(C)[C@@H]1CC[C@]2(C(=O)NCCCN)CC[C@]3(C)[C@H](CC[C@@H]4[C@@]5(C)CC[C@H](O)[C@@](C)(CO)[C@@H]5CC[C@]43C)[C@@H]12", "unit.name": "µM", "recorded.value": 23.8}

[I] C=C(C)[C@@H]1CC[C@]2(C(=O)NCCCCCCNC(=O)/C=C/C(=O)O)CC[C@]3(C)[C@H](CC[C@@H]4[C@@]5(C)CC[C@H](OC(C)=O)[C@@](C)(COC(C)=O)[C@@H]5CC[C@]43C)[C@@H]12
[II] C=C(C)[C@@H]1CC[C@]2(COC(=O)C(=O)OC)CC[C@]3(C)[C@H](CC[C@@H]4[C@@]5(C)CC[C@H](OC(=O)C(=O)OC)[C@@](C)(COC(=O)C(=O)OC)[C@@H]5CC[C@]43C)[C@@H]12
[III] C=C(C)[C@@H]1CC[C@]2(C(=O)NCCCCCCNC(=O)CCC(=O)O)CC[C@]3(C)[C@H](CC[C@@H]4[C@@]5(C)CC[C@H](OC(C)=O)[C@@](C)(COC(C)=O)[C@@H]5CC[C@]43C)[C@@H]12
[IV] C=C(C)[C@@H]1CC[C@]2(C(=O)NCC(=O)OC)CC[C@]3(C)[C@H](CC[C@@H]4[C@@]5(C)CC[C@H](OC(C)=O)[C@@](C)(COC(C)=O)[C@@H]5CC[C@]43C)[C@@H]12
Challenge: // ranking: key=IC50, reverse=True Rank the items, then write their labels in that order.
Response given: III, IV, I, II
